- measurement-target: HIV Env of isolate T257-31 (clade AG) (HIV)
- protocol-details: cell-based or functional assay
experimental-readout: IC80 (µg/ml) with constrains (µg/mL)
All answers are understood in µg/mL, so give the number only.

Some binders with recorded IC80 (µg/ml) with constrains:
Asked: Record request: IC80 (µg/ml) with constrains value, item ePGDM5 (antibody, V domains shown) VH: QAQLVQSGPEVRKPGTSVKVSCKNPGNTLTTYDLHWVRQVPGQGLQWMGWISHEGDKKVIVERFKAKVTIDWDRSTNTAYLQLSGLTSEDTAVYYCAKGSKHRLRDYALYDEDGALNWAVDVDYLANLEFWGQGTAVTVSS VL: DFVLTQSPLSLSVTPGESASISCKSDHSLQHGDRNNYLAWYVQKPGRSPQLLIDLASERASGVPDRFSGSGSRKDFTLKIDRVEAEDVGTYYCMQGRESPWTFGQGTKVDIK
Given back: 0.064

Asked: Try PGDM1400 (antibody, V domains shown) VH: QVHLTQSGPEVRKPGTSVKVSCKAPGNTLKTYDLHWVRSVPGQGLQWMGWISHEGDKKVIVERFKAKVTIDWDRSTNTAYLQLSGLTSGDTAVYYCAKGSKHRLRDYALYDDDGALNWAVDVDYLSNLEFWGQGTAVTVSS VL: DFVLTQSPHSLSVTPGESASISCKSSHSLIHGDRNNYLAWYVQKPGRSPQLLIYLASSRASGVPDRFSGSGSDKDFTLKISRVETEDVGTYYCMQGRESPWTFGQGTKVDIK next.
Given back: 0.552

Asked: What do you have for ePGDM13 (antibody, V domains shown) VH: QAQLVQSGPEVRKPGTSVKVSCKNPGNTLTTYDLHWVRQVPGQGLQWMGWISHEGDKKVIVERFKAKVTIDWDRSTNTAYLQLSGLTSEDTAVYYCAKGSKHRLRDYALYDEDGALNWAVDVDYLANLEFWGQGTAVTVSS VL: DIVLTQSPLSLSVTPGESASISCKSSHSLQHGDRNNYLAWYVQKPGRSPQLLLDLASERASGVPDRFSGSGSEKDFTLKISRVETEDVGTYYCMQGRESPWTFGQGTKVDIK ?
Given back: 0.078

Would you kindly look at the next entry?
Asked: Name the recorded IC80 (µg/ml) with constrains for ePGDM9 (antibody, V domains shown) VH: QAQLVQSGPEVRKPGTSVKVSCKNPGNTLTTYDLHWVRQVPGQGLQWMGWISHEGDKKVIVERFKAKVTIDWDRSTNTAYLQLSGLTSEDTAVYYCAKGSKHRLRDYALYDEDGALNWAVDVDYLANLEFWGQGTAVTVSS VL: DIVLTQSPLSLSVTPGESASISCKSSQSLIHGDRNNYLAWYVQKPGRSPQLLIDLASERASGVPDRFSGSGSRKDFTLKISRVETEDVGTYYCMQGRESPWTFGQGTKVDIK .
Given back: 0.076
